Documented log10(TGI) across a set of molecules
# Test system: HOP-62 NSCLC
# PROTOCOL TEXT: NCI tumour cell line growth inhibition, 48 h
QUANTITY KIND: log10(TGI) (log10 of the value in µM)

[[record]]
molecule = "Cc1ccc(S(=O)(=O)NC(CCC(=O)Nc2ccc(Cl)cc2)C(=O)Nc2ccc(Cl)cc2)cc1 (stereo not given)"
quantity_kind = "log10(TGI)"
recorded_result = 0.32

[[record]]
molecule = "N#Cc1ccccc1NC(=O)C(=O)C(C(=O)c1ccccc1-c1ccccc1)C1OC(=O)c2ccccc21 (stereo not given)"
quantity_kind = "log10(TGI)"
recorded_result = 1.40

[[record]]
molecule = "O=C1c2ccccc2-c2c1c1ccccc1c(=O)n2CCO"
quantity_kind = "log10(TGI)"
recorded_result = 1.51

[[record]]
molecule = "Oc1c(C2=NNC(c3cccs3)C2)ccc2ccccc12 (stereo not given)"
quantity_kind = "log10(TGI)"
recorded_result = 2.00

[[record]]
molecule = "O=C(c1cccs1)c1c(C(F)(F)F)n([O-])c2ccc(C(F)(F)F)cc2[n+]1=O"
quantity_kind = "log10(TGI)"
recorded_result = -0.12


* * *

# Tested on: XF 498 CNS
# PROTOCOL TEXT: NCI tumour cell line growth inhibition, 48 h
QUANTITY KIND: TGI

[[record]]
molecule = "O=[N+]([O-])c1ccc(-c2ccc(/C=N/n3c(-c4ccc(Cl)cc4)n[nH]c3=S)o2)cc1"
experimental_system = "XF 498 CNS"
recorded_result = "46.6 µM"

[[record]]
molecule = "CCOC(=O)c1cccc(=O)c(C(=O)OCC)c1"
experimental_system = "XF 498 CNS"
recorded_result = "> 100 µM"

[[record]]
molecule = "CCCCN(CCCC)C(=O)C(=O)CC(=O)c1ccc(Br)cc1"
experimental_system = "XF 498 CNS"
recorded_result = "> 100 µM"

[[record]]
molecule = "CC1=C(C(=O)Nc2ccc([N+](=O)[O-])cc2)C(c2ccco2)C(C(=O)Nc2ccc([N+](=O)[O-])cc2)=C(C)N1"
experimental_system = "XF 498 CNS"
recorded_result = "> 100 µM"

[[record]]
molecule = "COc1cc(C2C(Cl)C(=O)N2n2cnc3ccccc3c2=O)cc(OC)c1OC (stereo unspecified)"
experimental_system = "XF 498 CNS"
recorded_result = "> 100 µM"

[[record]]
molecule = "CC1=C(C(=O)Nc2ccccc2)C(c2ccc3c(c2)OCO3)C(C(=O)Nc2ccccc2)=C(C)N1"
experimental_system = "XF 498 CNS"
recorded_result = "85.4 µM"

[[record]]
molecule = "CC(C)=CC(=O)CC(=O)C(=O)Nc1ccc(C)c(C)c1"
experimental_system = "XF 498 CNS"
recorded_result = "> 100 µM"

[[record]]
molecule = "Cc1cc(C)nc(NS(=O)(=O)c2ccc(Nc3c4ccccc4nc4c(C(=O)Nc5ccc(S(N)(=O)=O)cc5)cccc34)cc2)n1"
experimental_system = "XF 498 CNS"
recorded_result = "> 100 µM"

[[record]]
molecule = "O=C1C=C(N2CCCC2)C=C(N2CCCC2)C1"
experimental_system = "XF 498 CNS"
recorded_result = "> 100 µM"

[[record]]
molecule = "CCC1(OC(=O)CN2CCN(CCO)CC2)C(=O)OCc2c1cc1n(c2=O)Cc2cc3ccccc3nc2-1 (stereo unspecified)"
experimental_system = "XF 498 CNS"
recorded_result = "14.2 µM"

[[record]]
molecule = "O=C(Cc1ccccc1)NN1C(=O)C(Cl)C1c1cccc(O)c1 (stereo unspecified)"
experimental_system = "XF 498 CNS"
recorded_result = "35.4 µM"


* * *

Property: GI50; scope: individual compounds
# Tested on: HOP-92 NSCLC
# PROTOCOL TEXT: NCI tumour cell line growth inhibition, 48 h
QUANTITY KIND: GI50

[[record]]
compound = "COc1cc(C2CC(c3cccc(Nc4ccncc4)c3)=NN2c2cc(Cl)cc(Cl)c2)cc(OC)c1OC (centres undefined)"
recorded_result = "1.12 µM"

[[record]]
compound = "COc1ccc(/C=C2\\CN(C(=O)CCN3CCC(=NO)CC3)C/C(=C\\c3ccc(OC)cc3)C2=O)cc1"
recorded_result = "2.34 µM"

[[record]]
compound = "COc1cc[nH]c1/C=C1\\C(=O)Nc2ccc(F)c(C#C[C@@H](O)[C@@H](N)[C@@H](C)O)c21"
recorded_result = "0.517 µM"

[[record]]
compound = "COc1ccc(/C(=C/c2cc(OC)c(OC)c(OC)c2)[N+](=O)[O-])cc1"
recorded_result = "1.44 µM"

[[record]]
compound = "O=C(CCCc1c[nH]c2ccccc12)NC1CC(=O)c2c(Br)sc(Br)c21 (centres undefined)"
recorded_result = "17.9 µM"

[[record]]
compound = "Nc1ccn(C=C=CCO)c(=O)n1"
recorded_result = "> 1000 µM"

[[record]]
compound = "O/N=C1\\CCc2cc(-c3nc(C4CCNCC4)[nH]c3-c3ccncc3)ccc21"
recorded_result = "> 25 µM"

[[record]]
compound = "COC(=O)[C@]12CC[C@@H](C)[C@H](C)[C@@H]1C1=CC[C@@H]3[C@@]4(C)CC(=O)[C@H](O)[C@@]5(C)COC(=C45)C[C@@]3(C)[C@]1(C)CC2"
recorded_result = "14.3 µM"

[[record]]
compound = "C[C@@H](c1ccc2nccn2c1)n1nnc2ncc(-c3cnn(C)c3)nc21"
recorded_result = "58 µM"


* * *

# Test system: TK-10 renal
# PROTOCOL TEXT: NCI tumour cell line growth inhibition, 48 h
QUANTITY KIND: GI50

[[record]]
compound = "COc1ccc(/C=C2\\CN(C(=O)CCN3CCC(=NO)CC3)C/C(=C\\c3ccc(OC)cc3)C2=O)cc1"
recorded_result = "2.86 µM"

[[record]]
compound = "Cc1ccc(-c2c(C#N)c(N)nc(N3CCOCC3)c2C#N)o1"
recorded_result = "35.4 µM"

[[record]]
compound = "COc1ccccc1C(=O)/C=C/c1cc2cccc(OC)c2[nH]c1=O"
recorded_result = "1.14 µM"

[[record]]
compound = "CCCCCCCCCCCCc1ccc(C(=O)/C=C/C(=O)O)cc1"
recorded_result = "1.82 µM"

[[record]]
compound = "CCOC(=O)CCC(NC(=O)c1ccc(N=Cc2nc3cc(C(F)(F)F)ccc3nc2-c2ccccc2)cc1)C(=O)OCC (stereo not given)"
recorded_result = "21.6 µM"

[[record]]
compound = "Nc1ccn(C=C=CCO)c(=O)n1"
recorded_result = "> 1000 µM"

[[record]]
compound = "O=C(Nc1n[nH]c2nc(-c3ccco3)c(Br)cc12)C1CC1"
recorded_result = "> 25 µM"

[[record]]
compound = "C[C@@H](c1ccc2nccn2c1)n1nnc2ncc(-c3cnn(C)c3)nc21"
recorded_result = "> 100 µM"

[[record]]
compound = "COc1cc2cc(Oc3ccc(NC(=O)Nc4cccc(C(F)(F)F)c4)cc3)c(C)nc2cc1OCCN1CCCCC1"
recorded_result = "1.83 µM"

[[record]]
compound = "COc1cc(-c2cc(C(=O)N3CCN(C(=O)c4ccccc4NCc4ccco4)CC3)nc3cc(-c4ccccc4)nn23)cc(OC)c1OC"
recorded_result = "6.74 µM"


* * *

# Test system: SF-539 CNS
# PROTOCOL TEXT: NCI tumour cell line growth inhibition, 48 h
QUANTITY KIND: TGI

[[record]]
compound = "O/N=C1/C(=C/c2ccc(F)cc2)CCCC1C(NO)c1ccc(F)cc1 (stereo unspecified)"
quantity_kind = "TGI"
recorded_result = "> 100 µM"

[[record]]
compound = "N=C(/C=C/c1ccc(-c2cn3cc(/C=C/C(=N)N4CCCC4)ccc3n2)cc1)N1CCCC1"
quantity_kind = "TGI"
recorded_result = "> 100 µM"

[[record]]
compound = "Cn1nc(-c2ccccc2NC(=O)C(F)(F)F)c(=O)n(C)c1=S"
quantity_kind = "TGI"
recorded_result = "83.9 µM"

[[record]]
compound = "Cc1ccc(S(=O)(=O)NC(=O)NC(CO)C(=O)O)cc1 (stereo unspecified)"
quantity_kind = "TGI"
recorded_result = "> 100 µM"

[[record]]
compound = "Cc1ccc(/C=C2\\N=C(N3CCCCC3)NC2=O)cc1"
quantity_kind = "TGI"
recorded_result = "> 100 µM"

[[record]]
compound = "Oc1c(C2=NNC(c3cccs3)C2)ccc2ccccc12 (stereo unspecified)"
quantity_kind = "TGI"
recorded_result = "43.1 µM"


* * *

# System: A549 NSCLC
# PROTOCOL TEXT: NCI tumour cell line growth inhibition, 48 h
QUANTITY KIND: TGI (µM)

[[record]]
compound = "CC(C)Nc1[nH]c(C(=O)c2ccccc2)c(N)c1C(=S)Nc1ccccc1"
quantity_kind = "TGI"
units_text = "µM"
comparative_sign = ">"
recorded_result = 100

[[record]]
compound = "Nc1nc(Cl)c(C=O)c(NCC2(CO)CC(CCc3ccccc3)C2)n1 (stereo unspecified)"
quantity_kind = "TGI"
units_text = "µM"
comparative_sign = "="
recorded_result = 25.5

[[record]]
compound = "CC(=O)OCCC1c2ccccc2-n2nc(-c3ccccc3)c(O)c21 (stereo unspecified)"
quantity_kind = "TGI"
units_text = "µM"
comparative_sign = "="
recorded_result = 37.3

[[record]]
compound = "COC(=O)C1Cc2c([nH]c3ccccc23)C(c2cccc(O)c2)N1 (stereo unspecified)"
quantity_kind = "TGI"
units_text = "µM"
comparative_sign = ">"
recorded_result = 100

[[record]]
compound = "CCOC(=O)N1CCN(Cc2cc(=O)n3cc(C)ccc3n2)CC1"
quantity_kind = "TGI"
units_text = "µM"
comparative_sign = ">"
recorded_result = 100

[[record]]
compound = "Cn1ncc2cc3c(Nc4ccc(Cl)cc4)cccc3nc21"
quantity_kind = "TGI"
units_text = "µM"
comparative_sign = "="
recorded_result = 85.3

